System: Saccharomyces cerevisiae
Assay: protein stability index of tFT-peptide fusion (C-terminal peptide) (PSI (0-1 scale)); higher = more stable (slower turnover)
Details: genetic background: wild type; temperature: 30 C
measured-endpoint: protein stability index
Respond numerically, and do not add a unit to the figure.

Known protein stability index results, listed for orientation:
| query-sequence | protein stability index |
| --- | --- |
| TPRASLSATSRS | 0.719 |
| CGALSVLGWEPF | 0.716 |
| PPSPPILPPRPP | 0.687 |
| PHPSLPGPFPHP | 0.705 |
| IGFHSGLFYYHC | 0.594 |

q: # get_value(readout='protein stability index', item= `LPHSPSLPPAFP` )
a: 0.708

====

# protein stability index listing for each entry below
Test system: Saccharomyces cerevisiae
Assay: protein stability index of tFT-peptide fusion (C-terminal peptide) (PSI (0-1 scale)); higher = more stable (slower turnover)
Conditions: genetic background: wild type; temperature: 30 C
In your answer, state the number alone without any accompanying words.

q: What value of protein stability index has been recorded for this entry: `AVCSLTLGFGWW`
a: 0.755

q: // query protein stability index value for entry `EHRPCQGVMYII`
a: 0.522

q: Data request, read-out protein stability index, for `STLYLKRKKIKK`
a: 0.696

q: Consider the sequence shown here: `LRGLAVWCGYFS` What is its recorded protein stability index?
a: 0.619

q: # protein stability index lookup, item `ARSDRLPNILPY`
a: 0.679

q: Query: protein stability index; subject: `AGRGRAIGAGFS`
a: 0.649

q: Value lookup for protein stability index; key = `CGFCVCWSGVAL`
a: 0.72

q: Quick check: protein stability index of `PPPTPRIPRPLR` ?
a: 0.717

q: Fill blank: measured protein stability index of the sequence `SVFPHPYMVVRS` is ____.
a: 0.598

q: Which protein stability index is listed for `WLRTGNVLQELL` ?
a: 0.699

q: # protein stability index lookup, item `AHVLQRVRLLSR`
a: 0.618

====

Entries annotated with measured protein stability index
Test system: Saccharomyces cerevisiae
Test: protein stability index of tFT-peptide fusion (C-terminal peptide) (PSI (0-1 scale)); higher = more stable (slower turnover)
Details: genetic background: wild type; temperature: 30 C
Lab note: record just the number, no unit beside it.

Sample records with protein stability index:
| query-sequence | system-name | numeric-readout |
| --- | --- | --- |
| SFPPPLPPPLHP | Saccharomyces cerevisiae | 0.721 |
| LVHPPPPLLPPA | Saccharomyces cerevisiae | 0.6 |
| LCPVLRSPFFLF | Saccharomyces cerevisiae | 0.551 |

Please find the next sequence below.
q: Quick check: protein stability index of `RCIRRWPYILKL` ?
a: 0.273

====

Tested on: Saccharomyces cerevisiae
Test: protein stability index of tFT-peptide fusion (C-terminal peptide) (PSI (0-1 scale)); higher = more stable (slower turnover)
Conditions: genetic background: das1 deletion; temperature: 30 C
measured-endpoint: protein stability index
// keep it numeric: no unit symbol after the value

Some entries whose results are on file:
| query-sequence | system-name | measured-endpoint | numeric-readout |
| --- | --- | --- | --- |
| LIYLNETLGTRL [IRC19 C-terminal 12 aa] | Saccharomyces cerevisiae | protein stability index | 0.705 |
| KDRCGNVPHQSR [MRN1 C-terminal 12 aa] | Saccharomyces cerevisiae | protein stability index | 0.706 |
| AGTENDEEEFNI [PSF2 C-terminal 12 aa] | Saccharomyces cerevisiae | protein stability index | 0.674 |
| QRRTSLDYGGYF [TAF3 C-terminal 12 aa] | Saccharomyces cerevisiae | protein stability index | 0.708 |

q: Could you tell me which protein stability index is on file for RQVLDREGLRFG [TRS31 C-terminal 12 aa] ?
a: 0.693

q: Fill blank: measured protein stability index of the sequence RALVDAIQLRGV [CGI121 C-terminal 12 aa] is ____.
a: 0.68

====

Test system: Saccharomyces cerevisiae
Test: protein stability index of tFT-peptide fusion in wild type (PSI (0-1 scale)); higher = more stable (slower turnover)
Settings: genetic background: wild type
As shown below, each of these sequences has a reported protein stability index value.
# print the numeric value only

| query-sequence | measured-endpoint | numeric-readout |
| --- | --- | --- |
| PDKKNHLIKLLN | protein stability index | 0.09 |

q: Which value of protein stability index has been reported for `ARWRVGLWRGAI` in the records?
a: 0.529

q: Please give the measured protein stability index for this sequence: `ARWRVCLWRGAS`
a: 0.397

q: What value of measured protein stability index is listed for `FSMRWTFRYWNN` ?
a: 0.158

q: Could you tell me which protein stability index is on file for `RLIQNLPVQFLN` ?
a: 0.029

q: # protein stability index lookup, item `PDKRNHLIKRLN`
a: 0.104

q: For `LKYLRQKMNHQN` , what is its reported protein stability index?
a: 0.17

====

The following sequences are listed with their measured protein stability index values.
Test system: Saccharomyces cerevisiae
Assay: protein stability index of tFT-peptide fusion (C-terminal peptide) (PSI (0-1 scale)); higher = more stable (slower turnover)
Details: genetic background: wild type; temperature: 30 C
Answer as a number with no unit attached.

Some sequences with recorded protein stability index:
| query-sequence | numeric-readout |
| --- | --- |
| WFSRVSSASRRS | 0.707 |
| AEFMRGVFKVSC | 0.682 |

Note: attention shifts to another entry.
q: Hi! What's the reported protein stability index for `PPAHIFHPPPAR` on Saccharomyces cerevisiae?
a: 0.699

====

Listing of entries alongside the reported protein stability index.
System: Saccharomyces cerevisiae
Assay: protein stability index of tFT-peptide fusion in wild type (PSI (0-1 scale)); higher = more stable (slower turnover)
Settings: genetic background: wild type
Response field accepts a number only; no unit should be typed.

Example results:
| query-sequence | protein stability index |
| --- | --- |
| RSLRVLLPLYFP | 0.634 |
| LKELRQKMNHQN | 0.217 |
| FVTRLDAIYFRI | 0.189 |
| CTSCGYKRRTNN | 0.477 |

q: I'm curious: which protein stability index was measured for `PSLAASFWRVCG` tested on Saccharomyces cerevisiae?
a: 0.163

q: Observed protein stability index on Saccharomyces cerevisiae for `CTSCGYKFRTEN` , please.
a: 0.45

q: Given the entry `LVVKLSCVACIN` , what protein stability index was observed with Saccharomyces cerevisiae?
a: 0.0127

q: Param readout= protein stability index; system= Saccharomyces cerevisiae; entry= `LVVYLSCVACNN` ; returns value.
a: 0.127

q: Give recorded protein stability index with Saccharomyces cerevisiae for the following sequence: `CLVSLTILLFFR`
a: 0.185

q: Tell me reported protein stability index for `CYVSLPILLFFR` , tested with Saccharomyces cerevisiae.
a: 0.0495

q: Return protein stability index measured with Saccharomyces cerevisiae given this sequence: `ARWRIGLWRGAS`
a: 0.327

q: Query for Saccharomyces cerevisiae: what protein stability index does the record show for `AITHPMCPLLLR` ?
a: 0.455

====

Test system: Saccharomyces cerevisiae
Experiment: protein stability index of tFT-peptide fusion (C-terminal peptide) (PSI (0-1 scale)); higher = more stable (slower turnover)
Conditions: genetic background: wild type; temperature: 30 C
measured-endpoint: protein stability index
Respond using a number only.

Illustrative cases are given below, each with its answer.
| query-sequence | system-name | protein stability index |
| --- | --- | --- |
| CDRNLSYGAGSV | Saccharomyces cerevisiae | 0.705 |
| SKKKTKKRRKKN | Saccharomyces cerevisiae | 0.698 |
| PSRPTLLTPLSP | Saccharomyces cerevisiae | 0.695 |

q: For the sequence shown here, `KRQKENRKNKKI` , give the reported protein stability index.
a: 0.704

q: For the sequence `GRGRCRGGVAVE` , what protein stability index is on record?
a: 0.751

q: // query protein stability index value for entry `GRVFDTNGIGLG`
a: 0.694

q: Give its protein stability index value. Item: `PTHGPSPPNVAT`
a: 0.659

q: // protein stability index lookup, key: `PLPPPPPPPLPP`
a: 0.737

q: So what's the measured protein stability index for this one? `GWLIWRVYGGGG`
a: 0.654

q: Value lookup for protein stability index; key = `LLLPPPVFPPSL`
a: 0.683

q: Which protein stability index reading was recorded for the sequence `WGGEVGQLLELW` ?
a: 0.714

====

Tested on: Saccharomyces cerevisiae
Assay: protein stability index of tFT-peptide fusion (C-terminal peptide) (PSI (0-1 scale)); higher = more stable (slower turnover)
Conditions: genetic background: wild type; temperature: 30 C
Would you please tag the item y when its protein stability index is 0.3 or above, and n when it is below?

q: Quick check, protein stability index >= 0.3? `VLVRVIYLLVSG`
a: n

q: Evaluate `FFAFLRFFIFYW` : protein stability index at minimum 0.3?
a: y

q: Can `RYVVVGACIQVV` be said to have protein stability index at or above 0.3?
a: y

q: Check this sequence for protein stability index at or above 0.3: `YLFDQYDWYKSM`
a: n
